- System under test: T1, recombinant mouse WISP1/His (mouse, UniProt O54775 23-367)
- T1 construct: also called murine WISP1; mWISP1; not shown: His tag
- T1 sequence (looked up): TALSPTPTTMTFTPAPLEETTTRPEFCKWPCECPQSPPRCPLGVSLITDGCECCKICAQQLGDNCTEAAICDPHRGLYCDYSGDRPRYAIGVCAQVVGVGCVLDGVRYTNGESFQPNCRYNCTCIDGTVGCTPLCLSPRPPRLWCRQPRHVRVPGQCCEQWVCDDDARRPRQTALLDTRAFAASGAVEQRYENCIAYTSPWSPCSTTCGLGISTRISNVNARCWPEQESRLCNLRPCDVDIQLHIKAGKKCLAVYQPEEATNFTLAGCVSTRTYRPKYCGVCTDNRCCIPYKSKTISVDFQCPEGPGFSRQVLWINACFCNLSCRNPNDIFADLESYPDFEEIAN
- Measurement notes: ELISA screening
Recorded metric: binding result

{"Binder": "WIr2C11 (antibody, V domains shown, Tested as IgG (captured by anti-human Fc); also called Wlr2C11) VH: QVQLVESGGALVQPGGSLRLSCAASGFTFSDHWLSWVRQAPGKGLEWVSSISSSSRYIHYADSVKGRFTISRDNAKNSLYLQMNSLSAEDTAVYYCAREDTSMATNGFDVWGQGTMVTVSS VL: AIQLTQSPSSLSASVGDRVTITCRASQGIRNHLGWYQQKPGKAPKRLIYAASSLQSGVPSRFSGSGSGTEFTLTISGLQPEDFATYYCLQHNSYPFTFGQGTRLEIK", "Recorded result": "binds"}
{"Binder": "WIr2F6 (antibody, V domains shown, Tested as IgG (captured by anti-human Fc); also called Wlr2F6) VH: QMQLVQSGAEVKRPGASVKVSCKASGYSFTNFDINWVRQATGQGLEWMGWMDPNSGNSGSAPAFQGRVTMTRDTSIGTAYMELSGLTSEDTAVYYCARDDFYDSSGFDAWGQGTLVTVSS VL: QSVLTQPPSASGTPGQTVTVSCSGRSSNVGSNTVDWYQHLPGTAPKLLIYSSNRRPSGVPDRFSGSKSGTSASLAISGLQSEDEADYYCAAWDDSLNVYVFGTGTKLTVL", "Recorded result": "binds"}
{"Binder": "WIr2A7 (antibody, V domains shown, Fully human IgG; also called Wlr2A7) VH: QVQLVQSGAEVKKPGASVKVSCKVSGYTLTELSIYWVRQAPGKGLEWVGGFDPEDGETVYAQNFQGRVTMTEDTSTDTAYMELSSLRSEDTAVYYCATHTSYDKVWGRYRPSLAFDIWGQGTMVTVSS VL: DIVMTQTPSSLSASVGDRVTITCQASQDISKYLNWYQQKPGKAPNLLIYDASNLETGVPSRFSGSGSGTDFTLTISSLQPEDIGTYYCQQDDNLPLTFGGGTKVEIK", "Recorded result": "binds"}
